Catalogue of CDC % Relative activity readings, one per entry.
- target: human Claudin18.2 (human)
- experiment: cell-based or functional assay
Return type: number; implicit unit %.

| binder | CDC % Relative activity, % |
| --- | --- |
| 411G3E10 (antibody, V domains shown) VH: DVQLVESGGGLVQPGGSRKLSCAASGFTFSGFGMHWIRQTPEKGLEWVAYISSGSRPIYYADTVKGRFTISRDNPKNTLFLQMTSLRSEDTAMYFCARFYYGNSFDHWGQGTLVTVSA VL: DIVMTQSPSFLTVTAGEKVTMNCRSSQSLLNSGNQKNYLTWYQQKPGQPPKLLIYWASTRESGVPDRFTGSGSGTDFTLTISSVQAEDLALYYCQNAYSFPLTFGAGTKLELK | 82.2 |

Exercise: Entry 394C2G5 (antibody, V domains shown) VH: DVQLVESGGGLVQPGGSRKLSCAASGFTFSGFGMHWIRQTPEKGLEWVAYVSSGSRPIYYADTVKGRFTISRDNPKNTLFLQMTSLRSEDTAMYFCARFYYGNSFDHWGQGTLVTVSA VL: DIVMTQSPSFLTVTAGEKVTMSCKSSQSLLNSGNQKNYLTWYQQKPGQPPKLLIYWASTRESGVPDRFTGSGSGTDFTLTINNVQAEDLALYYCQNAYSFPLTFGAGTKLELT : reported CDC % Relative activity = ?
Key: 131
